// values below are reported viability score
- System: RAW-Dual (murine macrophage reporter line)
- protocol details: viability score (confluency relative to resting cells, overnight) (fraction); higher = more viable, active = viable (0.7 or more)
- particulars: modulator concentration 10 µM

[
  {
    "compound": "Cc1ccc(-n2nnc3c(=O)n(CC(=O)N4CC(C)OC(C)C4)cnc32)cc1Cl (stereo unspecified)",
    "viability score": 0.976
  },
  {
    "compound": "COc1ccc(S(=O)(=O)NCCn2nc(C(F)(F)F)cc2C2CC2)cc1",
    "viability score": 0.979
  },
  {
    "compound": "CC(C)NNC(=O)c1ccncc1 [Prestw-176]",
    "viability score": 0.997
  },
  {
    "compound": "Cc1noc(C)c1CCC(=O)N1CCCC(c2nnc(C(F)(F)F)o2)C1 (stereo unspecified)",
    "viability score": 1.01
  },
  {
    "compound": "CCCc1cc(=O)[nH]c(=S)[nH]1",
    "viability score": 1.02
  },
  {
    "compound": "COc1ncc(-c2ccc3nccc(-c4ccnnc4)c3c2)cc1NS(=O)(=O)c1ccc(F)cc1F",
    "viability score": 0.33
  },
  {
    "compound": "CCCCNCCCCOc1ccc(C)cc1C(C)(C)C",
    "viability score": 0.0697
  },
  {
    "compound": "CSCCC(NC(=O)C(=Cc1ccccc1)NC(=O)c1ccco1)C(=O)O (stereo unspecified)",
    "viability score": 1
  },
  {
    "compound": "CCC(C)(C)C(=O)O[C@H]1C[C@@H](C)C=C2C=C[C@H](C)[C@H](CC[C@@H]3C[C@@H](O)CC(=O)O3)[C@H]21",
    "viability score": 0.219
  },
  {
    "compound": "CC1(C)Cc2c(sc3nc(SCC(N)=O)n(CCc4ccccc4)c(=O)c23)CO1",
    "viability score": 1.01
  },
  {
    "compound": "CCOC(=O)C(CCc1ccccc1)NC(C)C(=O)N1C(C(=O)O)CC2CCCC21 (stereo unspecified)",
    "viability score": 0.989
  }
]

Values from the supplement of paper PMC10646978
